# method: physchem
# Assay type: physicochemical
# assayContext: pH 2.7
quantityMeasured: chromatographic logP

These solved cases illustrate the format of a correct answer.
compound	result
CC(C(=O)O)n1c(=O)c2sc3c(=O)n(C(C)C(=O)O)c(=O)c3sc2c1=O (stereo not shown)	1.76
O=c1c2sc3c(=O)n(CC(F)(F)F)c(=O)c3sc2c(=O)n1CC(F)(F)F	3.41
CCOCCn1c(=O)c2sc3c(=O)n(CCOCC)c(=O)c3sc2c1=O	3.24

Now examine the next entry.
Requested field: chromatographic logP. Item: `COCCn1c(=O)c2sc3c(=O)n(CCOC)c(=O)c3sc2c1=O`
2.55

====

# method: physchem
# Assay type: physicochemical
# assayContext: pH 2.7
chromatographic logP values, listed per item
// no unit, no text: just the number

compound	chromatographic logP
CCC(O)Cn1c(=O)c2sc3c(=O)n(CC(O)CC)c(=O)c3sc2c1=O (centres unmarked)	2.27
CCn1c(=O)c2sc3c(=O)[nH]c(=O)c3sc2c1=O	2.13
CC(=O)OC(C)Cn1c(=O)c2sc3c(=O)n(CC(C)OC(C)=O)c(=O)c3sc2c1=O (centres unmarked)	3.09
Cn1c(=O)c2sc3c(=O)n(C)c(=O)c3sc2c1=O	2.32
CC(C)n1c(=O)c2sc3c(=O)n(C(C)C)c(=O)c3sc2c1=O	4.19
O=c1c2sc3c(=O)n(CCOc4ccccc4)c(=O)c3sc2c(=O)n1CCOc1ccccc1	3.86

Requested field: chromatographic logP. Item: CC(O)Cn1c(=O)c2sc3c(=O)n(CC(C)O)c(=O)c3sc2c1=O (centres unmarked)
1.63

Requested field: chromatographic logP. Item: `O=c1[nH]c(=O)c2sc3c(=O)[nH]c(=O)c3sc12`
1.13

Requested field: chromatographic logP. Item: `O=C(O)CCCCn1c(=O)c2sc3c(=O)n(CCCCC(=O)O)c(=O)c3sc2c1=O`
2.02

Requested field: chromatographic logP. Item: CCC(Cn1c(=O)c2sc3c(=O)n(CC(CC)OC(C)=O)c(=O)c3sc2c1=O)OC(C)=O (centres unmarked)
3.09

Requested field: chromatographic logP. Item: `CC(C)(O)Cn1c(=O)c2sc3c(=O)n(CC(C)(C)O)c(=O)c3sc2c1=O`
3.65

Requested field: chromatographic logP. Item: `O=c1c2sc3c(=O)n(C4(C(F)(F)F)CC4)c(=O)c3sc2c(=O)n1C1(C(F)(F)F)CC1`
4.03

Requested field: chromatographic logP. Item: CCOC(=O)C(CC)n1c(=O)c2sc3c(=O)n(C(CC)C(=O)O)c(=O)c3sc2c1=O (centres unmarked)
1.73

Requested field: chromatographic logP. Item: `O=c1c2sc3c(=O)n(Cc4ccccc4)c(=O)c3sc2c(=O)n1Cc1ccccc1`
4.6

Requested field: chromatographic logP. Item: O=C(O)C(Cc1ccccc1)n1c(=O)c2sc3c(=O)n(C(Cc4ccccc4)C(=O)O)c(=O)c3sc2c1=O (centres unmarked)
3.12

Requested field: chromatographic logP. Item: CC(CC(=O)O)n1c(=O)c2sc3c(=O)n(C(C)CC(=O)O)c(=O)c3sc2c1=O (centres unmarked)
1.99

Requested field: chromatographic logP. Item: `O=c1c2sc3c(=O)n(-c4cccc(C(F)(F)F)c4)c(=O)c3sc2c(=O)n1-c1cccc(C(F)(F)F)c1`
4.91
